Answer each item with its documented PBM binding z-score.
- System: PPARa:RXRa (NR concentration 270 nM, RXRa partner concentration 90 nM)
- ASSAY_NOTES: PBM binding z-score (relative to random genomic background probes); higher = stronger binding; sequences stand for … in GC…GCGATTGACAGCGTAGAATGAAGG

{"columns": ["PRIMARY_SEQUENCE", "RECORDED_RESULT"],
 "data": [
  ["ATCTCTAGGTAAGACTCAGTTCACTGAAGAACGC", 0.739],
  ["AGTGAAAGTTCACTAGGTAACGTAAGATTCAGCT", 4.5],
  ["CCTTACGGGTCACTGACATGTTATAGCATTTGGA", 5.2],
  ["CAAACTAGGTCACAGAGGTCATAGTCCGTGCGTA", 6.22],
  ["ACTAGCAGGCCAAGGGTCGCTCAAGATTAGTCCG", 2.36],
  ["GCGACTGGGGCAAAGCAGGTTAACATAAGGTTGG", 1.41],
  ["CGTCAAAGTTCAAGGTAACCTAACAGAAAGCAGC", 5.05],
  ["TCTTGTATATCAATAGAGGTTAAGAAAGTGCGCT", 1.77],
  ["GAAACAGGGTCAGCTAGAGGCCAGAGTATGGAAA", 4.97],
  ["TGACCAAGGTGAAAGGTCGTTGATGCACGCCTTG", 5.24]
]}

List reported PBM binding z-score for each of these sequences:
1. ATATGTAGGTTAGCTGGGGTCATTCATACTAGGC
2. CCTAGTGGGTCAAGGTCACACACGCTATAGGTAC
3. ACTAGCAGGACAAGTTTGGGTCACTCAAACAAAG
4. CCGACTGGGGCAGGAAGGTTACCATACCATCCGG
5. CCTACTGGGCCATCAGGTAATTGATATCAACGTT
6. TTACCAAGGTGAAGGTTGTTGATCCCTCTGTAGA

1. 5.1
2. 5.54
3. 1.36
4. 0.76
5. 0.452
6. 1.61

List reported PBM binding z-score for each of these sequences:
1. TCATATAGGGAAACAGGTGAAAGTCCGTAAGTTA
2. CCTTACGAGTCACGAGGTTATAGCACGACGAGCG
3. GATACAGGCTCAAGGCCAGAGTACGCGTATTGAT
4. CCTAGCAGGCCAGGGTCACACAAGCATTTCGCTT

1. 1.74
2. 1.84
3. -0.602
4. 4
